Here the recorded pEC50 is given for each entry.
- target-of-assay: T1, cynomolgus monkey PVRIG (Novoprotein, Cat NO. C09B) (cynomolgus monkey, UniProt A0A2K5WVV8 41-171)
- T1 construct: Bought reagent; also called cynomolgus monkey PVRIG protein
- T1 sequence: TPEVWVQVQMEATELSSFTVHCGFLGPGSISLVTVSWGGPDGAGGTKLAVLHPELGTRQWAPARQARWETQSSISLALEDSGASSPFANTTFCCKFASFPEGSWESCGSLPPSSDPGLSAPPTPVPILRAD
- assay-notes: ELISA, coated cynomolgus monkey PVRIG
pEC50: −log10 of the molar value.

binder	pEC50
PVRIG-A15 (Fc fusion, Alpaca VHH joined to human IgG1 Fc (VHH-hinge-CH2-CH3); not shown: human IgG1 hinge-CH2-CH3) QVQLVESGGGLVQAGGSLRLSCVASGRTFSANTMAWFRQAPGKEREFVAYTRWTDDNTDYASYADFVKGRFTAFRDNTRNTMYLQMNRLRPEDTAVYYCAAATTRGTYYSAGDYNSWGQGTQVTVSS	9.89
PVRIG-A43 (Fc fusion, Alpaca VHH joined to human IgG1 Fc (VHH-hinge-CH2-CH3); not shown: human IgG1 hinge-CH2-CH3) QVQLVESGGGLVQSGGSLRLSCAASGRTRSMYVMGWFRQAPGKEREFVGRIKWSGDTTYTSYADFVKGRFTLYGNQARNTVYLQMNSLKVEDTAVYYCAGRVVPLPSRQRDRYDYWGQGTQVTVSS	10.44
PVRIG-A75 (Fc fusion, Alpaca VHH joined to human IgG1 Fc (VHH-hinge-CH2-CH3); not shown: human IgG1 hinge-CH2-CH3) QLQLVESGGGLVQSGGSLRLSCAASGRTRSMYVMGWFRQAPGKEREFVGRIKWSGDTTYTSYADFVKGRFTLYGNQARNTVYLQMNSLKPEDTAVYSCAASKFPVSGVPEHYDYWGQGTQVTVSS	10.54
PVRIG-A113 (Fc fusion, Alpaca VHH joined to human IgG1 Fc (VHH-hinge-CH2-CH3); not shown: human IgG1 hinge-CH2-CH3) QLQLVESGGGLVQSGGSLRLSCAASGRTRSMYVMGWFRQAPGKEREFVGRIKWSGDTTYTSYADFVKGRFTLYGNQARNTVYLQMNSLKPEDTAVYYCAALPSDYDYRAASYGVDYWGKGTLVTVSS	10.35
PVRIG-A50 (Fc fusion, Alpaca VHH joined to human IgG1 Fc (VHH-hinge-CH2-CH3); not shown: human IgG1 hinge-CH2-CH3) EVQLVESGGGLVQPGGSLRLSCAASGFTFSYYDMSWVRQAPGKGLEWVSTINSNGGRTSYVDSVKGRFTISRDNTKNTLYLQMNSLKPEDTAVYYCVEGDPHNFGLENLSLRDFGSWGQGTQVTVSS	10.27
